Listing of recorded GI50 by entry.
system: 786-0; assay: Growth inhibition of human 786-0 cells after 48 hrs by sulforhodamine B assay; type: functional; details: 786-0, 48 h

- compoundString: "COc1ccc(-c2[nH]c3ccc(OC)cc3c2C=C(C#N)C#N)cc1"
  displayUnit: "µM"
  GI50: 14.3
- compoundString: "COC(=O)/C(=C\\c1c(C)[nH]c2ccccc12)S(=O)(=O)c1ccccc1"
  displayUnit: "µM"
  GI50: 8.2
- compoundString: "COc1ccc(-c2[nH]c3ccc(OC)cc3c2/C=C(\\C#N)S(=O)(=O)c2ccccc2)cc1"
  displayUnit: "µM"
  GI50: 2.1
- compoundString: "CC(=O)/C(=C\\c1c(-c2ccccc2)[nH]c2ccccc12)S(=O)(=O)c1ccccc1"
  displayUnit: "µM"
  GI50: 1.6
